Below: a set of entries, each annotated with reported activation.
testedTarget: Cellular tumor antigen p53 (Homo sapiens) (UniProt P04637)
Sequence (P04637 whole entry, looked up): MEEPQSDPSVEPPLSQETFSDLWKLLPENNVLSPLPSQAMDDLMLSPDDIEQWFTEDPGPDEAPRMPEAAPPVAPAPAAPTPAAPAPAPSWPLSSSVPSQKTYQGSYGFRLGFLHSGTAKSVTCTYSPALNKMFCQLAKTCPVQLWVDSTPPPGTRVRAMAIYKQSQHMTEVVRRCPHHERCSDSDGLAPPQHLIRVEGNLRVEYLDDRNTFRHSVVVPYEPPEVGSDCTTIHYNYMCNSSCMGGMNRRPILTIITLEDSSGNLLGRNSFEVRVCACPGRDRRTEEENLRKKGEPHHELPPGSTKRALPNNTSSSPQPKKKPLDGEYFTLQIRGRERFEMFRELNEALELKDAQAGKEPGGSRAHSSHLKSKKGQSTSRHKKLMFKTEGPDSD
assayExplanation: Primary qHTS for small molecule compounds that upregulate eGFP-tagged delta133p53alpha (in N-terminal) cells. (AID 2060322);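 also: cells pre-induced with doxycycline then dosed without doxycycline; series mostly up to about 56 µM; 0% = DMSO vehicle and 100% = reference activator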
conditionSet: NCI-H358 eGFP-delta133p53alpha fluorescence, 24 h; stronger effect = higher value
Inconclusive results are not listed.
Provide the reading as a plain figure in %.

## Task For COC(=O)CC1CC(c2ccc(O)cc2)=NO1 (centres undefined) , what is its reported activation?
## Result -0.955

## Task For CNCCC(Oc1ccccc1C)c1ccccc1 (centres undefined) , what is its reported activation?
## Result -12.7

## Task For C=C(C)[C@@H]1CC[C@]2(C(=O)O)CC[C@]3(C)C(CCC4[C@@]5(C)C[C@@H](O)[C@H](O)C(C)(C)C5CC[C@]43C)C12 (some centres undefined) , what is its reported activation?
## Result -10.7

## Task For COc1cc(F)c(C(C)C)cc1-c1ccc(C(F)(F)F)cc1CN1C(=O)OC(c2cc(C(F)(F)F)cc(C(F)(F)F)c2)C1C (centres undefined) , what is its reported activation?
## Result -6.68
